Test system: Rat fibroblasts (CREF)
measurement.notes: Peg3 promoter luciferase inhibitors, potency, dose response, cell-based, HeLa, CREF/GAPDH counter-screen panel (AID 624167)
test.conditions: CREF/GAPDH counter-screens, run 1, dose range 1, individual replicate IC50 per panel
experimental.readout: log10(IC50) (log10 of the value in µM)
Base-10 log of IC50, unit µM.

# example entries with known answers
• Cc1ccc(-c2cc3c(N=O)c4ccccc4c-3n[nH]2)cc1 = 0.44
• C/C(=N/NC(=O)c1cc(C2CC2)[nH]n1)c1cccs1 = 0.59
• Cc1ccccc1OCC(O)CNC1CCC(NCC(O)COc2ccccc2C)CC1 (configuration not stated) = 0.95
• CCOc1ccc(C(=O)O/N=C(\N)c2ccccn2)cc1 = 0.37
• CN=c1scc(-c2cccs2)n1/N=C/c1ccccc1O = 0.72
• OCCCNc1nccc(-c2cc(Nc3cccc(Cl)c3)ncn2)n1 = 1.28
• CC1=NOC(=O)/C1=C\c1ccc(-c2ccccc2Br)o1 = 1.39
• CN1CCC2(CC1)N=C(c1ccc(F)cc1)C(=S)N2C(=O)c1ccc(C(C)(C)C)cc1 = 1.46

Per the records, this molecule ( CC(C)Cc1ccc(C(C)C(N)=NCCc2ccccc2)cc1 (configuration not stated) ) has log10(IC50) equal to 1.18

Per the records, this molecule ( `CN=c1scc(-c2ccccc2F)n1/N=C/c1ccc[nH]1` ) has log10(IC50) equal to 0.64

Per the records, this molecule ( `O=C(NNC(=O)c1cccnc1SCc1cccc([N+](=O)[O-])c1)c1ccccn1` ) has log10(IC50) equal to 0.75

Per the records, this molecule ( Cc1cc(C(=O)CN2C(=O)c3ccccc3S2(=O)=O)c(C)n1CC1CCCO1 (configuration not stated) ) has log10(IC50) equal to 0.29

Per the records, this molecule ( `COc1ccc(C(=O)NNC(=O)c2ccccn2)cc1` ) has log10(IC50) equal to 0.08

----------
measurement.notes: Peg3 promoter luciferase inhibitors, potency, dose response, cell-based, HeLa, CREF/GAPDH counter-screen panel (AID 624167)
test.conditions: CREF/GAPDH counter-screens; GAPDH; mean of runs
Calls of active or inactive are those of the source.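 How the source made its calls: active means mean IC50 for reducing PEG3 promoter reporter signal at or below a set limit, with IC50 above the limit in both counter screens; inactive means the rest, including counter screen hits.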
Give your call using only these classes: 1 for active, 0 for inactive

See these solved cases before continuing.
• COc1ccc(N(C(=O)CCl)C(C(=O)NC2CCCCC2)c2cccnc2)cc1 (stereo not drawn) = 0
• O=C(N/N=C\c1c(O)ccc2ccccc12)c1ccc(Cn2cccn2)o1 = 0

Kindly review the next molecule as well.
Request: Hi, do you know how NC(C(=O)O)C1ON=C(Cl)C1O (stereo not drawn) came out in this test?
Result: 1

----------
Test system: Rat fibroblasts (CREF)
measurement.notes: Peg3 promoter luciferase inhibitors, potency, dose response, cell-based, HeLa, CREF/GAPDH counter-screen panel (AID 624167)
test.conditions: CREF/GAPDH counter-screens, mean of runs
Calls of active or inactive are those of the source.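 How the source made its calls: active means mean IC50 for reducing PEG3 promoter reporter signal at or below a set limit, with IC50 above the limit in both counter screens; inactive means the rest, including counter screen hits.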
Give your call using only these classes: class 1 for active, class 0 for inactive

Request: Hi, do you know how COC1CC(C)C(OC)c2cc(O)cc(c2O)NC(=O)C(C)=CC=CC(C)C(OC(N)=O)C(C)=CC(C)C1OC (stereo unspecified) came out in this test?
Result: class 0

Request: Hi, do you know how CCC1(OC(=O)CN)C(=O)OCc2c1cc1n(c2=O)Cc2cc3ccccc3nc2-1 (stereo unspecified) came out in this test?
Result: class 1

Request: Hi, do you know how `O=C(CCSc1nc2ccccc2s1)N/N=C/c1c(O)ccc2ccccc12` came out in this test?
Result: class 0

Request: Hi, do you know how `O=C(NCCc1ccccc1)c1ccc2c(c1)OCO2` came out in this test?
Result: class 1

Request: Hi, do you know how `Oc1[nH]c2ccc(Br)cc2c1N=NC(=S)N1CCOCC1` came out in this test?
Result: class 0

Request: Hi, do you know how CC(=O)OC1CC[C@]2(C#N)[C@H]3CC[C@]4(C)[C@H](C5C=CC(=O)O5)CCC4(O)C3CCC2(O)C1 (stereo partly specified) came out in this test?
Result: class 0

Request: Hi, do you know how `Cc1ccc2nc(-c3ccc(Br)cc3)cn2c1` came out in this test?
Result: class 1

Request: Hi, do you know how `CC(=O)c1ccc(-c2cnc3c(NC=O)cc(-c4ccccc4Oc4ccccc4)cn23)cc1` came out in this test?
Result: class 0

Request: Hi, do you know how `O=C(O)c1cccc(COc2ccccc2Cl)c1` came out in this test?
Result: class 1

Request: Hi, do you know how `COc1cc2nc(CN3CC=C(c4ccccc4)CC3)[nH]c(=O)c2cc1OC` came out in this test?
Result: class 0

Request: Hi, do you know how `O=C1c2cccc3cc([N+](=O)[O-])cc(c23)C(=O)N1CCN1CCCC1` came out in this test?
Result: class 1

----------
Test system: PEG-3
measurement.notes: Peg3 promoter luciferase inhibitors, potency, dose response, cell-based, HeLa, CREF/GAPDH counter-screen panel (AID 624167)
test.conditions: HeLa PEG-Prom luciferase reporter, overnight, CREF/GAPDH counter-screens, run 1, dose range 1, individual replicate IC50 per panel
experimental.readout: pIC50
Note on pIC50: it is the negative log10 of concentration, concentration in mol/L.

• C/C(=N\NC(=O)c1c(C)nc2ccccn12)c1ccc(O)cc1O = 5.88

Per the records, this compound ( `Cc1nc2cc(-c3ccccc3)sc2c(=O)n1N` ) has pIC50 equal to 5.83

Per the records, this compound ( CC(=O)NC(c1ccc(Cl)cc1)c1ccc2cccnc2c1O (configuration not stated) ) has pIC50 equal to 5.83

Per the records, this compound ( `Cc1cc(C(=O)CN2C(=O)c3ccccc3S2(=O)=O)c(C)n1C(C)C` ) has pIC50 equal to 5.19

Per the records, this compound ( `COc1ccc(-c2cc(C(=O)N3CCN(c4ccccc4F)CC3)c3ccccc3n2)c(OC)c1` ) has pIC50 equal to 5.04

Per the records, this compound ( `O=C(O)CN1C(=O)/C(=C\c2ccccc2OCc2ccc(Cl)cc2Cl)SC1=S` ) has pIC50 equal to 4.78

Per the records, this compound ( `CCCCCCOc1ccc(/C(C)=N/NC2=NCCN2)cc1` ) has pIC50 equal to 4.81

----------
Test system: Rat fibroblasts (CREF)
measurement.notes: Peg3 promoter luciferase inhibitors, potency, dose response, cell-based, HeLa, CREF/GAPDH counter-screen panel (AID 624167)
test.conditions: CREF/GAPDH counter-screens, mean of runs
Active and inactive are the calls of the source.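 How the source made its calls: active means mean IC50 for reducing PEG3 promoter reporter signal at or below a set limit, with IC50 above the limit in both counter screens; inactive means the rest, including counter screen hits.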
Give your call using only these classes: TRUE = active, FALSE = inactive

• COc1ccc(C(=O)/C=C/Nc2ccccn2)cc1 = TRUE
• Oc1c(I)cc(Cl)c2cccnc12 = TRUE
• OCCNc1c2ccccc2nc2ccccc12 = TRUE

Request: Hi, do you know how `COc1cc(OC)c2cc(C(=O)N/N=C/c3ccccc3O)[nH]c2c1` came out in this test?
Result: TRUE

Request: Hi, do you know how COc1ccc(/C=C2/CCCC(CN(C)C)C2=O)cc1 (stereo unspecified) came out in this test?
Result: TRUE

Request: Hi, do you know how `O=C(Nc1ccc([N+](=O)[O-])cc1)C(=O)Nc1cccc(C(=O)O)c1` came out in this test?
Result: TRUE

Request: Hi, do you know how `NC1=C(Br)C(=O)c2ncccc2C1=O` came out in this test?
Result: TRUE

Request: Hi, do you know how `CCOC(=O)c1cnc(Nc2nc3ccccc3o2)nc1C` came out in this test?
Result: TRUE

Request: Hi, do you know how `Cc1cc(C(=O)COC(=O)c2ccccc2O)c(C)n1Cc1cccs1` came out in this test?
Result: TRUE

Request: Hi, do you know how `COc1ccc(C(=O)O/N=C(\N)c2ccccn2)cc1` came out in this test?
Result: TRUE

Request: Hi, do you know how Cc1cc(C(=O)CN2C(=O)c3ccccc3S2(=O)=O)c(C)n1CC1CCCO1 (stereo unspecified) came out in this test?
Result: TRUE

Request: Hi, do you know how `C(=NNc1ccc2ccccc2n1)c1ccccn1` came out in this test?
Result: TRUE

Request: Hi, do you know how CCC(=O)NC(c1ccc(C)cc1)c1ccc2cccnc2c1O (stereo unspecified) came out in this test?
Result: FALSE

----------
system.name: PEG-3 (UniProt Q6IN02)
Sequence (Q6IN02 whole entry, looked up): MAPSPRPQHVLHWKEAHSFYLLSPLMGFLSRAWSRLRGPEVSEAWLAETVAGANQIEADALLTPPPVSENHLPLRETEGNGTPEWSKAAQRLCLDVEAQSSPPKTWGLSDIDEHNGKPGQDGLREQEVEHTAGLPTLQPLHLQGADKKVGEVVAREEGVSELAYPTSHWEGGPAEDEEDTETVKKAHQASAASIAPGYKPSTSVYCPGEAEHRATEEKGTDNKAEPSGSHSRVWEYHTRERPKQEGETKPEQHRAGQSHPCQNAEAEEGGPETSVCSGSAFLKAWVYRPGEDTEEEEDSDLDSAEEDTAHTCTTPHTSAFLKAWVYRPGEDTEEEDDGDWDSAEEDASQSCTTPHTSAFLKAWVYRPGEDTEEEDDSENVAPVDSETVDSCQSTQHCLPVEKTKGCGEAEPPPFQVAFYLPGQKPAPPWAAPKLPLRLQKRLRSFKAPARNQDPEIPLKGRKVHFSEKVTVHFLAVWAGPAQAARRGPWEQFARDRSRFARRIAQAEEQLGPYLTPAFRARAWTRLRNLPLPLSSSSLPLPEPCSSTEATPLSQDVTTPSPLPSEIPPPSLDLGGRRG
measurement.notes: Peg3 promoter luciferase inhibitors, potency, dose response, cell-based, HeLa, CREF/GAPDH counter-screen panel (AID 624167)
test.conditions: HeLa PEG-Prom luciferase reporter, overnight, CREF/GAPDH counter-screens, mean of runs
The source made the active and inactive calls.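 The calls were made as follows: active = mean IC50 for reducing PEG3 promoter reporter signal at or below a set limit, with IC50 above the limit in both counter screens; inactive = the rest, including counter screen hits.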
Give your call using only these classes: 1 (yes) (active), 0 (no) (inactive)

See these solved cases before continuing.
• COc1cc(/C=C/c2ccc3cccc(O)c3n2)ccc1O = 0 (no)
• O=C(CCN1C(=O)/C(=C/c2cccs2)SC1=S)N1CCCCC1 = 0 (no)
• CN(C)c1c([N+](=O)[O-])cc(N2C(=O)C=CC2=O)cc1[N+](=O)[O-] = 1 (yes)

Kindly review the next compound as well.
Request: Hi, do you know how COc1ccccc1NC(=O)Nc1nc(C(N)CCc2ccccc2)cs1 (centres undefined) came out in this test?
Result: 1 (yes)

Source of measurements: PubChem BioAssay AID624167
